Assay type: physicochemical
Conditions: Tris-hydrochloric acid buffer (pH 7.5) 50 mmol/L, magnesium chloride 5 mmol/L, evaluation compound 1 µmol/L, 37°C, 60 minutes, average of duplicate
Consider the following compounds and their measured Concentration of evaluation compound decreased readings.
READOUT NAME: Concentration of evaluation compound decreased (nM)

COMPOUND	MEASUREMENT
O=c1ccc2ccc(OCCCC[N+]3(COP(=O)([O-])OCCCO)CCN(c4cccc5sccc45)CC3)cc2[nH]1 [EX 6]	-110
CCCCCC(=O)OC[N+]1(CCCCOc2ccc3ccc(=O)[nH]c3c2)CCN(c2cccc3sccc23)CC1.[I-] [REX 6, reference compound]	220
COCCOC(=O)CCCCCCCCCCC(=O)OCOP(=O)([O-])OC[N+]1(CCCCOc2ccc3ccc(=O)[nH]c3c2)CCN(c2cccc3sccc23)CC1 [EX 77]	110
CCCCCCCCOP(=O)([O-])OC[N+]1(CCCCOc2ccc3ccc(=O)[nH]c3c2)CCN(c2cccc3sccc23)CC1 [EX 37]	60
O=c1ccc2ccc(OCCCC[N+]3(COP(=O)([O-])OCCCCO)CCN(c4cccc5sccc45)CC3)cc2[nH]1 [EX 10]	-20
CC(C)(CO)COP(=O)([O-])OC[N+]1(CCCCOc2ccc3ccc(=O)[nH]c3c2)CCN(c2cccc3sccc23)CC1 [EX 48]	-30
O=c1ccc2ccc(OCCCC[N+]3(COP(=O)([O-])OCC(F)F)CCN(c4cccc5sccc45)CC3)cc2[nH]1 [EX 115]	50
O=C(OCCCN1CCOCC1)OCOP(=O)([O-])OC[N+]1(CCCCOc2ccc3ccc(=O)[nH]c3c2)CCN(c2cccc3sccc23)CC1 [EX 146]	110
O=c1ccc2ccc(OCCCC[N+]3(COP(=O)([O-])OCCCCCCCBr)CCN(c4cccc5sccc45)CC3)cc2[nH]1 [EX 64]	30
CC(=O)OCCCCCCOP(=O)([O-])OC[N+]1(CCCCOc2ccc3ccc(=O)[nH]c3c2)CCN(c2cccc3sccc23)CC1 [EX 101]	80
O=c1ccc2ccc(OCCCC[N+]3(COP(=O)([O-])OCC4CC4)CCN(c4cccc5sccc45)CC3)cc2[nH]1 [EX 91]	120
CCC(=O)OC[N+]1(CCCCOc2ccc3ccc(=O)[nH]c3c2)CCN(c2cccc3sccc23)CC1.[I-] [REX 5, reference compound]	200
CCOCCOP(=O)([O-])OC[N+]1(CCCCOc2ccc3ccc(=O)[nH]c3c2)CCN(c2cccc3sccc23)CC1 [EX 94]	-70
CCOCCOCCOCCOC(=O)OCOP(=O)([O-])OC[N+]1(CCCCOc2ccc3ccc(=O)[nH]c3c2)CCN(c2cccc3sccc23)CC1 [EX 136]	0
COC(=O)[C@H](COP(=O)([O-])OC[N+]1(CCCCOc2ccc3ccc(=O)[nH]c3c2)CCN(c2cccc3sccc23)CC1)NC(=O)OC(C)(C)C [EX 83]	70
COCCC(=O)OCOP(=O)([O-])OC[N+]1(CCCCOc2ccc3ccc(=O)[nH]c3c2)CCN(c2cccc3sccc23)CC1 [EX 28]	-70
COCC1CCC(COP(=O)([O-])OC[N+]2(CCCCOc3ccc4ccc(=O)[nH]c4c3)CCN(c3cccc4sccc34)CC2)CC1 (centres unmarked) [EX 54]	140
COCC(COC)OP(=O)([O-])OC[N+]1(CCCCOc2ccc3ccc(=O)[nH]c3c2)CCN(c2cccc3sccc23)CC1 [EX 56]	40
O=C(OCCCCCCOP(=O)([O-])OC[N+]1(CCCCOc2ccc3ccc(=O)[nH]c3c2)CCN(c2cccc3sccc23)CC1)c1ccccc1 [EX 57]	90
O=c1ccc2ccc(OCCCC[N+]3(COP(=O)([O-])OCCN4CCCCC4)CCN(c4cccc5sccc45)CC3)cc2[nH]1 [EX 118]	60
O=C(O)CCCCCOC(=O)OCOP(=O)([O-])OC[N+]1(CCCCOc2ccc3ccc(=O)[nH]c3c2)CCN(c2cccc3sccc23)CC1 [EX 145]	30
O=c1ccc2ccc(OCCCC[N+]3(COP(=O)([O-])OCCCCBr)CCN(c4cccc5sccc45)CC3)cc2[nH]1 [EX 62]	180
C[C@@H](OP(=O)([O-])OC[N+]1(CCCCOc2ccc3ccc(=O)[nH]c3c2)CCN(c2cccc3sccc23)CC1)C(=O)OC(C)(C)C [EX 106]	70
O=c1ccc2ccc(OCCCC[N+]3(COP(=O)([O-])OCCCCCCO)CCN(c4cccc5sccc45)CC3)cc2[nH]1 [EX 44]	-50
CC1(C)O[C@H]2[C@@H](O1)[C@@H](COP(=O)([O-])OC[N+]1(CCCCOc3ccc4ccc(=O)[nH]c4c3)CCN(c3cccc4sccc34)CC1)O[C@@H]1OC(C)(C)O[C@@H]12 [EX 100]	50
CCOCCOCCOC(=O)OCOP(=O)([O-])OC[N+]1(CCCCOc2ccc3ccc(=O)[nH]c3c2)CCN(c2cccc3sccc23)CC1 [EX 134]	70

The measured values listed here are drawn from patent EP4707284A1.
